# experimental-target: pol eta core G209V G209V (Homo sapiens)
# Sequence: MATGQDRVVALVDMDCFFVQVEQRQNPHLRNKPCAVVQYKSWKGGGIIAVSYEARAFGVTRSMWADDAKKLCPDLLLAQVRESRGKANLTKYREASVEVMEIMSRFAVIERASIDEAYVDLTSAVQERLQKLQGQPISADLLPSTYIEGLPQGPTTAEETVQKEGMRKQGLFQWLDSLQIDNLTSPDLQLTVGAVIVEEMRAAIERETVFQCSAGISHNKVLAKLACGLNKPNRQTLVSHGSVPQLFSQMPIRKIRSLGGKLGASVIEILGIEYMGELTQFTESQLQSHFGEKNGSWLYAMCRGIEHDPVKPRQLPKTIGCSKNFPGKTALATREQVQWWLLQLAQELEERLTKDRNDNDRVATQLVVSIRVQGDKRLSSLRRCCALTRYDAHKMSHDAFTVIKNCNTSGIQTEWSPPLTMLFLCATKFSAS
# method-notes: fluorescence polarization
# study-conditions: 50 mM HEPES-KOH pH 7.5, 10 mM potassium acetate, 2 mM beta-mercaptoethanol, 0.1 mg/mL BSA, 5 mM MgCl2; 2 nM DNA; temperature not stated
experimental-endpoint: pKd
Value format note: pKd is -log10 of concentration (mol/L); just state the number.

Enquiry: Indicate the recorded pKd value for this sequence: CACCATCCACTAC / ATGTAGTTGTAGTGGATGGTGGTAC [13-FAM-mer/25-TT-mer]
Return: 8.08
